The reported measurements were obtained from PubChem BioAssay AID1159580.

- assay: chemical genetic growth profiling, strain panel (AID 1159580);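 note: tested at 20 µM; growth read once vehicle control cultures reached saturation at 30 °C; 1 = growth at the plate median or of vehicle wells; lower values mean less growth of the strain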
- study.conditions: S. cerevisiae deletion strains, growth OD, locus YFR010W, strain ubp6, stronger effect = lower value
Out of some 5,500 compounds screened, about 2,000 (36%) were called active. Inconclusive results (about 18%) are left out. The list shows a part of the results.
reported.metric: normalized growth

Known results for compounds:
Documented normalized growth of CC(C)c1cc2c(c(O)c1O)[C@@]1(C(=O)O)CCCC(C)(C)C1CC2 (stereo partly specified) : 0.944 (inactive)

Documented normalized growth of `O=c1c(O)c(-c2ccccc2)oc2ccccc12` : 0.291 (active)

Documented normalized growth of CC12CCC(OC(=O)c3ccccc3)CC1CCc1ccccc12 (stereo unspecified) : 0.992 (inactive)

Documented normalized growth of `O=c1c(O)c(-c2ccccc2)oc2ccc3occc3c12` : 0.926 (inactive)

Documented normalized growth of CC12CCC(O)CC1CCc1ccccc12 (stereo unspecified) : 0.979 (inactive)

New cases:
Documented normalized growth of `O=c1c(O)c(-c2ccc(O)cc2)oc2ccccc12` : 0.84 (active)

====

- assay: chemical genetic growth profiling, strain panel (AID 1159580);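 note: tested at 20 µM; growth read once vehicle control cultures reached saturation at 30 °C; 1 = growth at the plate median or of vehicle wells; lower values mean less growth of the strain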
- study.conditions: S. cerevisiae deletion strains, growth OD, locus YER155C, strain BEM2 (second series), stronger effect = lower value
In all, about 5,500 compounds went through this assay and about 2,000 (36%) were called active. About 18% were inconclusive and are not listed. The list shows a part of the results.
reported.metric: normalized growth
No unit in the answer, please; the number alone is enough.

Known results for compounds:
Documented normalized growth of `CC(C)[C@@H]1CC[C@@H](C)CC1=O` : 0.99

Documented normalized growth of COC(=O)CC1C(C)(C(=O)c2ccoc2)CC2OCC34C(CC(=O)OC)C5(C)CC36OC3(C)OC1(C(OC(C)=O)C6(OC(C)=O)C5OC(=O)C(C)C)C24O3 (stereo not given) : 1.01

New cases:
Documented normalized growth of `CC[C@H]1OC(=O)[C@H](C)[C@@H](O[C@H]2C[C@@](C)(OC)[C@@H](O)[C@H](C)O2)[C@H](C)[C@@H](O[C@@H]2O[C@H](C)C[C@H](N(C)C)[C@H]2O)[C@](C)(O)C[C@@H](C)/C(=N/OCOCCOC)[C@H](C)[C@@H](O)[C@]1(C)O` : 0.897

Documented normalized growth of `O=c1c(O)c(-c2ccccc2)oc2cccc(O)c12` : 0.751

Documented normalized growth of `CN1CCC[C@H]1c1cccnc1` : 0.991

Documented normalized growth of ClC1C(Cl)C(Cl)C(Cl)C(Cl)C1Cl (stereo not given) : 0.306

Documented normalized growth of COc1cc2c(cc1OC)C(C)NCC2 (stereo not given) : 0.985

====

- assay: chemical genetic growth profiling, strain panel (AID 1159580);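 note: tested at 20 µM; growth read once vehicle control cultures reached saturation at 30 °C; 1 = growth at the plate median or of vehicle wells; lower values mean less growth of the strain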
- study.conditions: S. cerevisiae deletion strains, growth OD, locus YFR003C, strain YPI1, stronger effect = lower value
The campaign covered roughly 5,500 compounds. About 2,000 (36%) were called active. About 18% were inconclusive and are not listed. Some of the results follow.
Measured normalized growth, listed per entry.
No unit in the answer, please; the number alone is enough.

Documented normalized growth of `O=C(NCc1ccc2c(c1)OCO2)c1cc2ccccc2s1` : 0.872

Please find the next molecule below.
Documented normalized growth of `S=C(NCc1cccs1)Nc1cc(Cl)cc(Cl)c1` : 0.948
